Test system: PBMC
experiment_description: Cytotoxicity against human PBMC cells
Format: cell-based
// reported CC50 for each item listed
Please give a number only; it is taken to be in µM.

Illustrative cases are given below, each with its answer.
>>> df
                                   compound  observed_value
0  CC(C)(C)C(=O)OCOP(=O)(C/C=C/Cn1cc(C(N)=O)nn1)OCOC(=O)C(C)(C)C            62.4
1  CCCCCCc1ccc(-c2cn(C/C=C/CP(=O)(OCOC(=O)C(C)(C)C)OCOC(=O)C(C)(C)C)nn2)cc1             5.9

Could you now consider this next compound?
Request - read-out CC50 | tested on PBMC | compound `CC(C)(C)C(=O)OCOP(=O)(C/C=C/Cn1cc(CO)nn1)OCOC(=O)C(C)(C)C` 73.2

###

// reported EC50 for each item listed
Tested on: Human immunodeficiency virus
experiment_description: Antiviral activity against HIV infected in human CEM cells assessed as inhibition of HIV-induced CEM giant cell formation after 4 days by microscopy
settings: Human immunodeficiency virus 1, CCRF-CEM, 96 h
Please give a number only; it is taken to be in µM.

>>> print(df.to_string())
                                   compound               target_of_assay  units_of_measure  observed_value
0  CC(C)(C)C(=O)OCOP(=O)(C/C=C/Cn1ccc(N)nc1=O)OCOC(=O)C(C)(C)C  Human immunodeficiency virus                µM            70.4

Report EC50 for `CC(C)(C)C(=O)OCOP(=O)(C/C=C/Cn1cc(C(N)=O)nn1)OCOC(=O)C(C)(C)C` please. 70.5

Report EC50 for `CCCCCCc1ccc(-c2cn(C/C=C/CP(=O)(OCOC(=O)C(C)(C)C)OCOC(=O)C(C)(C)C)nn2)cc1` please. 43.9

###

Test system: Hepatitis C virus
experiment_description: Antiviral activity against HCV infected in Huh7 cells assessed as inhibition of viral RNA replication after 5 days by RT-PCR Assay
Type: functional, Hepacivirus hominis, Huh-7
readout_label: inhibition (INH) (%)
Please give a number only; it is taken to be in %.

                                   compound  observed_value
0  CC(C)(C)C(=O)OCOP(=O)(C/C=C/Cn1ccnn1)OCOC(=O)C(C)(C)C            85.9
1  CC(C)(C)C(=O)OCOP(=O)(C/C=C/Cn1cc(CO)nn1)OCOC(=O)C(C)(C)C            78.1
2  CC(C)(C)C(=O)OCOP(=O)(C/C=C/Cn1cc(C(N)=O)nn1)OCOC(=O)C(C)(C)C            86.5
3  CC(C)(C)C(=O)OCOP(=O)(C/C=C/Cn1ccc(N)nc1=O)OCOC(=O)C(C)(C)C            80.4

Report inhibition (INH) for `CC(C)(C)C(=O)OCOP(=O)(C/C=C/Cn1cc(-c2ccc(F)cc2)nn1)OCOC(=O)C(C)(C)C` please. 84.3

Report inhibition (INH) for `CCCCCCc1ccc(-c2cn(C/C=C/CP(=O)(OCOC(=O)C(C)(C)C)OCOC(=O)C(C)(C)C)nn2)cc1` please. 95

Report inhibition (INH) for `CC(C)(C)C(=O)OCOP(=O)(C/C=C/Cn1cc(-c2ccccc2)nn1)OCOC(=O)C(C)(C)C` please. 83.1

Report inhibition (INH) for `CC(C)(C)C(=O)OCOP(=O)(C/C=C/Cn1ccnc(C(N)=O)c1=O)OCOC(=O)C(C)(C)C` please. 60

Report inhibition (INH) for `CC(C)(C)C(=O)OCOP(=O)(C/C=C/Cn1cnc(C(N)=O)n1)OCOC(=O)C(C)(C)C` please. 73.9

Report inhibition (INH) for `CC(C)(C)C(=O)OCOP(=O)(C/C=C/Cn1cc(C(=O)O)nn1)OCOC(=O)C(C)(C)C` please. 53.8

Report inhibition (INH) for `CC(C)(C)C(=O)OCOP(=O)(C/C=C/Cn1cc(-c2cccs2)nn1)OCOC(=O)C(C)(C)C` please. 0.2

Report inhibition (INH) for `CCCCCCCCc1cn(C/C=C/CP(=O)(OCOC(=O)C(C)(C)C)OCOC(=O)C(C)(C)C)nn1` please. 88.7

Report inhibition (INH) for `CC(C)(C)C(=O)OCOP(=O)(C/C=C/Cn1cc(F)c(N)nc1=O)OCOC(=O)C(C)(C)C` please. 73.6

Report inhibition (INH) for `COC(=O)c1nccn(C/C=C/CP(=O)(OCOC(=O)C(C)(C)C)OCOC(=O)C(C)(C)C)c1=O` please. 76.9

Report inhibition (INH) for `CC(C)(C)C(=O)OCOP(=O)(C/C=C/Cn1cc(-c2ccc(OC(F)(F)F)cc2)nn1)OCOC(=O)C(C)(C)C` please. 60.6

Report inhibition (INH) for `COc1cc(OC)cc(-c2cn(C/C=C/CP(=O)(OCOC(=O)C(C)(C)C)OCOC(=O)C(C)(C)C)nn2)c1` please. 20.8

Report inhibition (INH) for `CCCc1ccc(-c2cn(C/C=C/CP(=O)(OCOC(=O)C(C)(C)C)OCOC(=O)C(C)(C)C)nn2)cc1` please. 95.6

###

// reported CC50 for each item listed
System: PBMC
experiment_description: Cytotoxicity against human PBMC cells
Format: cell-based
Please give a number only; it is taken to be in µM.

Illustrative cases are given below, each with its answer.
>>> df
                                   compound  observed_value
0  CC(C)(C)C(=O)OCOP(=O)(C/C=C/Cn1cnc(C(N)=O)n1)OCOC(=O)C(C)(C)C            58.3
1  CC(C)(C)C(=O)OCOP(=O)(C/C=C/Cn1cc(-c2cccs2)nn1)OCOC(=O)C(C)(C)C            32.9

Request - read-out CC50 | tested on PBMC | compound `CC(C)(C)C(=O)OCOP(=O)(C/C=C/Cn1cc(-c2ccc(F)cc2)nn1)OCOC(=O)C(C)(C)C` 61.9

###

// reported CC50 for each item listed
Test system: CCRF-CEM
experiment_description: Cytotoxicity against human CEM cells
Assay type: cell-based
Please give a number only; it is taken to be in µM.

Report CC50 for `CC(C)(C)C(=O)OCOP(=O)(C/C=C/Cn1cc(-c2ccccc2)nn1)OCOC(=O)C(C)(C)C` please. 31.6

Report CC50 for `CCCCCCc1ccc(-c2cn(C/C=C/CP(=O)(OCOC(=O)C(C)(C)C)OCOC(=O)C(C)(C)C)nn2)cc1` please. 16.1

Report CC50 for `CC(C)(C)C(=O)OCOP(=O)(C/C=C/Cn1cc(-c2cccs2)nn1)OCOC(=O)C(C)(C)C` please. 31.6

Report CC50 for `CC(C)(C)C(=O)OCOP(=O)(C/C=C/Cn1cc(C(N)=O)nn1)OCOC(=O)C(C)(C)C` please. 52.9

Report CC50 for `CC(C)(C)C(=O)OCOP(=O)(C/C=C/Cn1cc(-c2ccc(OC(F)(F)F)cc2)nn1)OCOC(=O)C(C)(C)C` please. 37.6

###

// reported CC50 for each item listed
System: Vero
experiment_description: Cytotoxicity against african green monkey Vero cells
Type: cell-based
settings: chlorocebus sabaeus
Please give a number only; it is taken to be in µM.

Report CC50 for `CCCCCCc1ccc(-c2cn(C/C=C/CP(=O)(OCOC(=O)C(C)(C)C)OCOC(=O)C(C)(C)C)nn2)cc1` please. 10.4

Report CC50 for `CC(C)(C)C(=O)OCOP(=O)(C/C=C/Cn1cc(-c2ccc(OC(F)(F)F)cc2)nn1)OCOC(=O)C(C)(C)C` please. 12.7

Report CC50 for `CC(C)(C)C(=O)OCOP(=O)(C/C=C/Cn1cc(-c2cccs2)nn1)OCOC(=O)C(C)(C)C` please. 17.1

Report CC50 for `CC(C)(C)C(=O)OCOP(=O)(C/C=C/Cn1cc(-c2ccc(F)cc2)nn1)OCOC(=O)C(C)(C)C` please. 47

###

// reported CC50 for each item listed
Tested on: PBMC
experiment_description: Cytotoxicity against human PBMC cells
Assay type: cell-based
Please give a number only; it is taken to be in µM.

Illustrative cases are given below, each with its answer.
In [3]: df
Out[3]:
                                   compound  units_of_measure  observed_value
0  CC(C)(C)C(=O)OCOP(=O)(C/C=C/Cn1ccnn1)OCOC(=O)C(C)(C)C                µM            93.1
1  CC(C)(C)C(=O)OCOP(=O)(C/C=C/Cn1cc(-c2ccccc2)nn1)OCOC(=O)C(C)(C)C                µM              16

Report CC50 for `CCCc1ccc(-c2cn(C/C=C/CP(=O)(OCOC(=O)C(C)(C)C)OCOC(=O)C(C)(C)C)nn2)cc1` please. 35.9
